assay: inhibition of PAO1 biofilm formation – strain PAO1, LB-PBS medium, absorbance 600 nm, primary screen (AID 1176); conditions: P. aeruginosa PAO1 growth/biofilm, A600, 12 h; higher = more signal
Endpoint: z-score

>  <Molecule>
CC(c1ccccc1)C(O)C1C=CC2C(=O)N(c3ccccc3)C(=O)C2N1Nc1ccccc1F (stereo not drawn)

>  <Experimental value>
0.533

$$$$
>  <Molecule>
O=C1C2C=CC(C(O)c3ccccn3)N(Nc3ccccc3F)C2C(=O)N1c1ccccc1 (stereo not drawn)

>  <Experimental value>
0.378

$$$$
>  <Molecule>
COCCOC(=O)N1C(=O)[C@@]2(c3ccccc31)[C@H](c1ccc(O)cc1)N1[C@H](c3ccccc3)[C@H](c3ccccc3)OC(=O)[C@H]1[C@@H]2C(N)=O

>  <Experimental value>
0.125

$$$$
>  <Molecule>
Cc1c(NC(=O)/C(C#N)=C/C=C/c2ccccc2)c(=O)n(-c2ccccc2)n1C

>  <Experimental value>
0.242

$$$$
>  <Molecule>
COc1ccccc1CN1C(=O)c2ccccc2[C@](Cc2ccccc2I)(C(=O)NC2CC2)[C@@H]1c1ccc(CO)cc1

>  <Experimental value>
0.0714

$$$$
>  <Molecule>
C=C(COC)C(=O)CC[C@H](OC(=O)c1cccnc1)c1ccccc1OCCO

>  <Experimental value>
1.45

$$$$
>  <Molecule>
CCCC[C@@H]1C[C@H]1[C@@H](NC(=O)c1ccccc1)c1ccc(-c2ccccc2)cc1

>  <Experimental value>
0.122

$$$$
>  <Molecule>
CO[C@H]1O[C@H](CO)[C@@H](OC(=O)Nc2ccc3c(c2)OCO3)[C@H](OC(=O)Nc2ccc3c(c2)OCO3)[C@H]1OC(=O)Nc1ccc2c(c1)OCO2

>  <Experimental value>
2.5

$$$$

* * *

target: Streptavidin (Streptomyces avidinii); test: compounds binding control protein streptavidin – biophysical, small-molecule microarray, 635/667 nm fluorescence, artefact control for SMM compound annotation, primary screen (AID 1147); conditions: higher = more signal;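 further: signal reflects streptavidin binding to arrayed compounds as a control protein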

>  <Molecule>
COc1ccc([Si](C)(C)[C@H]2[C@H](CC(=O)N3Cc4ccccc4C[C@H]3CO)O[C@@]3(C(=O)N(Cc4cccc(I)c4)c4ccccc43)[C@@H]2C)cc1

>  <Subject of test>
Streptavidin (Streptomyces avidinii)

>  <composite z-score>
0.795

$$$$
>  <Molecule>
COc1cc(CO)cc(I)c1O[C@H]1C=C(C(=O)NCCO)C[C@@H](N(CCc2cccc(F)c2)C(=O)CCC2CCCC2)[C@@H]1O

>  <Subject of test>
Streptavidin (Streptomyces avidinii)

>  <composite z-score>
0.628

$$$$
>  <Molecule>
Cc1ccc(S[C@]2(C(=O)NCCN3CCOCC3)CC(=O)N(C3CCCCC3)[C@@H]2c2ccc(CO)cc2)cc1

>  <Subject of test>
Streptavidin (Streptomyces avidinii)

>  <composite z-score>
0.893

$$$$
>  <Molecule>
COCCn1c(C(=O)N(C)C)cc2c1C[C@H]1CN(C(=O)c3ccccc3)[C@@](Cc3ccc(F)cc3)(C(=O)OC)[C@@H]21

>  <Subject of test>
Streptavidin (Streptomyces avidinii)

>  <composite z-score>
0.45

$$$$
>  <Molecule>
CCOC(=O)C1=CC[C@@H](c2ccccc2)N(S(=O)(=O)c2ccc(C)cc2)[C@H]1c1ccc(C#N)cc1

>  <Subject of test>
Streptavidin (Streptomyces avidinii)

>  <composite z-score>
1.31

$$$$
>  <Molecule>
CN1C(=O)C2C=CC(C(O)C(C)(C)C)N(Nc3ccccc3)C2C1=O (stereo not given)

>  <Subject of test>
Streptavidin (Streptomyces avidinii)

>  <composite z-score>
0.0034

$$$$
>  <Molecule>
COC(=O)[C@@]1(Cc2ccc(OC)cc2)[C@H]2c3cc(C(=O)N4CCCC4)n(CCN4CCOCC4)c3C[C@H]2CN1C(=O)c1ccccc1

>  <Subject of test>
Streptavidin (Streptomyces avidinii)

>  <composite z-score>
2.02

$$$$
>  <Molecule>
COC(=O)C(CC#Cc1ccc2c(c1)[C@]1(C(=O)N2)[C@H](C(=O)N2CCCCCCC2)[C@H]2C(=O)O[C@H](c3ccccc3)[C@H](c3ccccc3)N2[C@@H]1c1ccccc1OCCO)C(=O)OC

>  <Subject of test>
Streptavidin (Streptomyces avidinii)

>  <composite z-score>
4.06

$$$$
>  <Molecule>
CCCCN1CC=CC23O[C@@H]4C=CCCOC(=O)C4[C@H]2C(=O)N(CCCO)[C@@H]3C1=O (stereo not given in full)

>  <Subject of test>
Streptavidin (Streptomyces avidinii)

>  <composite z-score>
-0.614

$$$$
>  <Molecule>
Cc1ccc([C@H]2C(C(=O)O)=C[C@@H](C(C)C)N2S(=O)(=O)c2ccc(C)cc2)cc1

>  <Subject of test>
Streptavidin (Streptomyces avidinii)

>  <composite z-score>
0.946

$$$$
>  <Molecule>
C=C(CCCC)C(=O)CC[C@H](OC(=O)c1ccccc1-c1ccccc1C(=O)O)c1ccc(CO)o1

>  <Subject of test>
Streptavidin (Streptomyces avidinii)

>  <composite z-score>
1.5

$$$$
>  <Molecule>
CN(C)CCCC[C@@H]1NC(=O)[C@@H]2C[C@H](C(=O)NCCCCCN)[C@H](c3ccc(O)cc3)N2C1=O

>  <Subject of test>
Streptavidin (Streptomyces avidinii)

>  <composite z-score>
1.26

$$$$
>  <Molecule>
CC(=O)n1cc(C(O)C2C=CC3C(=O)N(c4ccccc4)C(=O)C3N2Nc2ccc(C#N)cc2)c2ccccc21 (stereo not given)

>  <Subject of test>
Streptavidin (Streptomyces avidinii)

>  <composite z-score>
0.846

$$$$
>  <Molecule>
COC(=O)[C@@]1(Cc2ccc(OC)cc2)[C@H]2c3cc(C(=O)N(C)C)n(CCSCCO)c3C[C@H]2CN1C(=O)c1ccccc1

>  <Subject of test>
Streptavidin (Streptomyces avidinii)

>  <composite z-score>
0.872

$$$$
>  <Molecule>
O=C(NCc1ccccc1)[C@@H]1c2ccccc2C(=O)N(C2CCCCC2)[C@H]1c1ccc(CO)cc1

>  <Subject of test>
Streptavidin (Streptomyces avidinii)

>  <composite z-score>
-0.395

$$$$

* * *

tested on: XIP peptide (Xip251-270) binding; test: XIP fragment 251-270 binding compounds – biochemical, small-molecule microarray, fluorescence 635/667 nm, 0.1 µg/mL protein, primary screen (AID 1182); settings: fluorescent protein binding, 635 nm, higher = more signal, called active from +8 up or from −8 down
Each entry below lists one item and its recorded composite z-score value.
Endpoint: composite z-score

>  <Molecule>
O=C1OCC=C[C@H]2OC34C=CCN(CCN5CCOCC5)C(=O)[C@H]3N(CCCCCCO)C(=O)[C@@H]4[C@@H]12 (some centres not stated)

>  <Subject of test>
XIP peptide (Xip251-270) binding

>  <Endpoint>
composite z-score

>  <Experimental value>
0.304

$$$$
>  <Molecule>
COc1cc(NN2C(C(O)c3ccccc3)C=CC3C(=O)N(c4ccccc4)C(=O)C32)cc(OC)c1OC (configuration not stated)

>  <Subject of test>
XIP peptide (Xip251-270) binding

>  <Endpoint>
composite z-score

>  <Experimental value>
0.396

$$$$
>  <Molecule>
O=C1C2C=CC(C(O)c3ccccn3)N(Nc3ccccc3F)C2C(=O)N1c1ccccc1 (configuration not stated)

>  <Subject of test>
XIP peptide (Xip251-270) binding

>  <Endpoint>
composite z-score

>  <Experimental value>
-0.035

$$$$
>  <Molecule>
C=CC[C@@]1(C(=O)NCc2ccccc2)N=C(c2ccc(OCCCO)cc2)O[C@@H]1c1ccccc1CN=[N+]=[N-]

>  <Subject of test>
XIP peptide (Xip251-270) binding

>  <Endpoint>
composite z-score

>  <Experimental value>
-0.0368

$$$$
>  <Molecule>
CCCCC(=O)N(Cc1ccccc1F)[C@@H]1CC(C(=O)NCCO)=C[C@H](Oc2c(I)cc(CO)cc2OC)[C@H]1O

>  <Subject of test>
XIP peptide (Xip251-270) binding

>  <Endpoint>
composite z-score

>  <Experimental value>
0.466

$$$$
>  <Molecule>
COCCOC(=O)N1C(=O)[C@@]2(c3ccccc31)[C@H](C(=O)N1CCCCCCC1)[C@H]1C(=O)O[C@H](c3ccccc3)[C@H](c3ccccc3)N1[C@@H]2c1ccccc1OCCO

>  <Subject of test>
XIP peptide (Xip251-270) binding

>  <Endpoint>
composite z-score

>  <Experimental value>
2.16

$$$$
>  <Molecule>
O=C1O[C@H](c2ccccc2)[C@H](c2ccccc2)N2[C@H]1[C@@H](C(=O)NC[C@H](O)c1ccccc1)[C@]1(C(=O)Nc3ccc(C#CC4(O)CCCCCC4)cc31)[C@H]2c1ccccc1OCCO

>  <Subject of test>
XIP peptide (Xip251-270) binding

>  <Endpoint>
composite z-score

>  <Experimental value>
-0.34

$$$$

* * *

test: JC-1 mitochondrial signal, unstimulated HepG2 cells – cell-based, JC-1 fluorescence, 24 h, 100 nL compound, profiling panel (AID 1167); details: HepG2 mitochondrial potential, higher = more signal
Endpoint: z-score

>  <Compound>
CCN(CC)c1ccc(N2CC=CC34O[C@@H]5/C=C\CCCOC(=O)C5[C@H]3C(=O)N(CCCO)[C@@H]4C2=O)cc1 (some centres undefined)

>  <Experimental value>
0.472

$$$$
>  <Compound>
C=C(CCCC)/C(=C/C[C@@H](OC(=O)c1ccncc1)c1ccc(CO)o1)c1cc(C(=O)OC)ccc1OC

>  <Experimental value>
0.0818

$$$$
>  <Compound>
O=C1C2C=CC(C(O)c3ccc(Br)cc3)N(n3cnnc3)C2C(=O)N1Cc1ccccc1 (centres undefined)

>  <Experimental value>
-0.422

$$$$
>  <Compound>
CC(C)(C)OC(=O)CC[C@]1(C(=O)NCC(O)CO)N=C(c2ccc(OCCCO)cc2)O[C@H]1c1ccccc1CN=[N+]=[N-] (some centres undefined)

>  <Experimental value>
-1.02

$$$$
>  <Compound>
COCCn1c(C(=O)N(C)C)cc2c1C[C@H]1CN(C(=O)c3ccccc3)[C@@](Cc3ccc(F)cc3)(C(=O)OC)[C@@H]21

>  <Experimental value>
0.938

$$$$
>  <Compound>
O=C1[C@H]2C=C(Br)[C@H](C[C@@H]2OCCOCCO)[C@@]12CO2

>  <Experimental value>
-1.33

$$$$
>  <Compound>
O=C(NCC(O)CO)[C@@]1(Cc2ccccc2)COC(c2ccc(OCCCO)cc2)=N1 (some centres undefined)

>  <Experimental value>
-0.201

$$$$
>  <Compound>
CC(C)N1C(=O)c2ccccc2[C@](C)(C(=O)NC2CC2)[C@@H]1c1ccc(CO)cc1

>  <Experimental value>
1.57

$$$$
>  <Compound>
CO[C@H]1O[C@H](CO)[C@@H](OC(=O)Nc2cccc(F)c2)[C@H](OC(=O)Nc2ccccc2-c2ccccc2)[C@@H]1OC(=O)Nc1ccccc1-c1ccccc1

>  <Experimental value>
-0.27

$$$$
>  <Compound>
C=CCOC(=O)[C@@H]1[C@H]2C(=O)O[C@H](c3ccccc3)[C@H](c3ccccc3)N2[C@H](c2ccc(OCCOC(=O)[C@H]3C[C@H]4C(=O)N[C@@H](Cc5ccccc5)C(=O)N4[C@H]3c3ccc(O)cc3)cc2)[C@@]12C(=O)Nc1ccc(I)cc12

>  <Experimental value>
-0.638

$$$$
>  <Compound>
O=C1c2ccccc2[C@](Cc2ccccc2I)(C(=O)O)[C@H](c2ccc(CO)cc2)N1Cc1ccccc1C(F)(F)F

>  <Experimental value>
-0.51

$$$$
>  <Compound>
CO[C@H]1O[C@H](CO)[C@@H](OC(=O)Nc2ccc(C(F)(F)F)cc2)[C@H](OC(=O)Nc2ccccc2)[C@@H]1OC(=O)Nc1ccccc1

>  <Experimental value>
-0.901

$$$$
>  <Compound>
COc1ccc([Si](C)(C)[C@@H]2[C@@H](CCO)O[C@]3(C(=O)N(Cc4ccc(N5C(=O)c6cccc7cccc5c67)cc4)c4ccccc43)[C@H]2C)cc1

>  <Experimental value>
0.00779

$$$$
>  <Compound>
C=CCC(OC(C)=O)[C@@H]1[C@@H](N(Cc2ccc(-c3cccc(C(F)(F)F)c3)o2)C(=O)c2ccc(C)cc2)c2cc(OCCCO)ccc2N1C(=O)c1ccc2ccccc2n1 (some centres undefined)

>  <Experimental value>
2.67

$$$$
